Every entry's value here was drawn from patent US8722864B2.

In this section, each of the compounds is paired with its reported Vd.
- assayMethodText: in vivo;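 also: rats fasted overnight before dosing and fed about 4 h afterwards, with serial blood sampled through a carotid artery catheter at each time point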
- conditions: male, Sprague-Dawley, rat, iv
Give a bare numeral; the unit L/kg is implied.

Illustrative cases are given below, each with its answer.
| compound | Vd, L/kg |
| --- | --- |
| CC(=O)Nc1ccc(O[C@H]2O[C@H](C)[C@@H](O)[C@H](O)[C@@H]2O)cc1 | 1.58 |
| CC(=O)Nc1ccc(O[C@H]2O[C@H](CO)[C@@H](O)[C@H](O)[C@@H]2O)cc1 | 0.349 |
| CC(=O)Nc1ccc(O[C@H]2O[C@H](CO)[C@@H](O[C@H]3O[C@H](CO)[C@@H](O)[C@H](O)[C@H]3O)[C@H](O)[C@@H]2O)cc1 [compound 5, 1-(4-acetaminophenoxy) 2-epi maltose] | 26.8 |
| CC(=O)Nc1ccc(O[C@H]2O[C@H](COC(C)=O)[C@@H](O)[C@H](O)[C@@H]2O)cc1 | 0.8 |

**Query** What value of measured Vd is listed for CC(=O)Nc1ccc(O[C@H]2O[C@H](COC(=O)C(C)C)[C@@H](O)[C@H](O)[C@@H]2O)cc1 ?
**Result** 1.77

**Query** Consider the compound CCCC(=O)OC[C@H]1O[C@H](Oc2ccc(NC(C)=O)cc2)[C@@H](O)[C@@H](O)[C@@H]1O and give its measured Vd.
**Result** 1.56

**Query** // Vd lookup, key: CC(=O)Nc1ccc(O[C@H]2O[C@H](COC(=O)CCC(=O)O)[C@@H](O)[C@H](O)[C@@H]2O)cc1
**Result** 0.549

----------
Below is a list of entries, each paired with its recorded log10 of C0 value.
- assayMethodText: in vivo
- conditions: male, Sprague-Dawley, rat, iv
Scale: log10; quantity: C0; unit before log: µM

Please review the entries below; each comes with its answer.
| compound | numericResult |
| --- | --- |
| CC(=O)Nc1ccc(O[C@H]2O[C@H](C)[C@@H](O)[C@H](O)[C@@H]2O)cc1 | 2.09 |
| CCCC(=O)OC[C@H]1O[C@H](Oc2ccc(NC(C)=O)cc2)[C@@H](O)[C@@H](O)[C@@H]1O | 1.63 |
| CC(=O)Nc1ccc(O[C@H]2O[C@H](COC(=O)CCC(=O)O)[C@@H](O)[C@H](O)[C@@H]2O)cc1 | 2.34 |
| CC(=O)Nc1ccc(O[C@H]2O[C@H](COC(=O)C(C)C)[C@@H](O)[C@H](O)[C@@H]2O)cc1 | 1.49 |

**Query** Recorded log10 of C0 for CC(=O)Nc1ccc(O[C@H]2O[C@H](COC(C)=O)[C@@H](O)[C@H](O)[C@@H]2O)cc1 , please?
**Result** 1.98

**Query** Need log10 of C0, item CC(=O)Nc1ccc(O[C@H]2O[C@H](CO)[C@@H](O[C@H]3O[C@H](CO)[C@@H](O)[C@H](O)[C@H]3O)[C@H](O)[C@@H]2O)cc1 [compound 5, 1-(4-acetaminophenoxy) 2-epi maltose]
**Result** 0.40

**Query** I would be grateful if you could share the reported log10 of C0 for CC(=O)Nc1ccc(O[C@H]2O[C@H](CO)[C@@H](O)[C@H](O)[C@@H]2O)cc1 .
**Result** 2.53

----------
- assayMethodText: in vivo
- conditions: male, Sprague-Dawley, rat, iv
Entries annotated with measured clearance
Enter your answer as a number in mL/min/kg; do not include the unit.

Please review the entries below; each comes with its answer.
| compound | numericResult |
| --- | --- |
| CC(=O)Nc1ccc(O[C@H]2O[C@H](COC(C)=O)[C@@H](O)[C@H](O)[C@@H]2O)cc1 [compound 15] | 78.7 |
| CCCC(=O)OC[C@H]1O[C@H](Oc2ccc(NC(C)=O)cc2)[C@@H](O)[C@@H](O)[C@@H]1O [compound 18] | 345 |
| CC(=O)Nc1ccc(O[C@H]2O[C@H](C)[C@@H](O)[C@H](O)[C@@H]2O)cc1 [compound 23, 1-(4′-acetamidophenoxy)-6-deoxymannose] | 24.9 |
| CC(=O)Nc1ccc(O[C@H]2O[C@H](COC(=O)C(C)C)[C@@H](O)[C@H](O)[C@@H]2O)cc1 [compound 19] | 203 |
| CC(=O)Nc1ccc(O[C@H]2O[C@H](CO)[C@@H](O[C@H]3O[C@H](CO)[C@@H](O)[C@H](O)[C@H]3O)[C@H](O)[C@@H]2O)cc1 [compound 5, 1-(4-acetaminophenoxy) 2-epi maltose] | 759 |
| CC(=O)Nc1ccc(O[C@H]2O[C@H](COC(=O)CCC(=O)O)[C@@H](O)[C@H](O)[C@@H]2O)cc1 [compound 20] | 22.7 |

**Query** // lookup clearance for CC(=O)Nc1ccc(O[C@H]2O[C@H](CO)[C@@H](O)[C@H](O)[C@@H]2O)cc1 [compound 8, 1-(4′-acetamidophenoxy) mannose]
**Result** 24.7

----------
Listed here: items and their measured AUC(0-t).
- assayMethodText: in vivo
- conditions: male, Sprague-Dawley, rat, iv
Output spec: scalar in µM·h, unitless text.

| entrySmiles | numericResult |
| --- | --- |
| CC(=O)Nc1ccc(O[C@H]2O[C@H](COC(C)=O)[C@@H](O)[C@H](O)[C@@H]2O)cc1 | 14.2 |
| CC(=O)Nc1ccc(O[C@H]2O[C@H](COC(=O)CCC(=O)O)[C@@H](O)[C@H](O)[C@@H]2O)cc1 | 51.8 |
| CC(=O)Nc1ccc(O[C@H]2O[C@H](COC(=O)C(C)C)[C@@H](O)[C@H](O)[C@@H]2O)cc1 | 3.68 |

Here is another compound to look at.
**Query** // lookup AUC(0-t) for CCCC(=O)OC[C@H]1O[C@H](Oc2ccc(NC(C)=O)cc2)[C@@H](O)[C@@H](O)[C@@H]1O
**Result** 3.3

----------
- assayMethodText: in vivo
- conditions: male, Sprague-Dawley, rat, iv
reportedEndpoint: MRT inf (min)
Express the result in min but write the number alone.

| compound | reportedEndpoint | numericResult |
| --- | --- | --- |
| CC(=O)Nc1ccc(O[C@H]2O[C@H](COC(C)=O)[C@@H](O)[C@H](O)[C@@H]2O)cc1 [compound 15] | MRT inf | 10.2 |
| CC(=O)Nc1ccc(O[C@H]2O[C@H](C)[C@@H](O)[C@H](O)[C@@H]2O)cc1 [compound 23, 1-(4′-acetamidophenoxy)-6-deoxymannose] | MRT inf | 52.7 |

**Query** MRT inf for CC(=O)Nc1ccc(O[C@H]2O[C@H](CO)[C@@H](O)[C@H](O)[C@@H]2O)cc1 [compound 8, 1-(4′-acetamidophenoxy) mannose] ?
**Result** 14.2

----------
- assayMethodText: in vivo
- conditions: male, Sprague-Dawley, rat, iv
reportedEndpoint: AUC(0-t) (µM·h)
Number in µM·h, nothing else.

| compound | AUC(0-t) (µM·h) |
| --- | --- |
| CC(=O)Nc1ccc(O[C@H]2O[C@H](C)[C@@H](O)[C@H](O)[C@@H]2O)cc1 | 44 |

**Query** Which measured AUC(0-t) value corresponds to CC(=O)Nc1ccc(O[C@H]2O[C@H](CO)[C@@H](O[C@H]3O[C@H](CO)[C@@H](O)[C@H](O)[C@H]3O)[C@H](O)[C@@H]2O)cc1 [compound 5, 1-(4-acetaminophenoxy) 2-epi maltose] ?
**Result** 1.57

**Query** Can you share its AUC(0-t)? I mean this compound: CC(=O)Nc1ccc(O[C@H]2O[C@H](CO)[C@@H](O)[C@H](O)[C@@H]2O)cc1
**Result** 44.9
